# assay_method_text: chemical genetic growth profiling, strain panel (AID 1159580);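 further: tested at 20 µM; growth read once vehicle control cultures reached saturation at 30 °C; 1 = growth at the plate median or of vehicle wells; lower values mean less growth of the strain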
# settings: S. cerevisiae deletion strains, growth OD, locus YIR030C, strain dcg1, stronger effect = lower value
About 2,000 (36%) of roughly 5,500 compounds were called active. Inconclusive results (about 18%) are left out. This is one part of the list.
result_type: normalized growth
Reply: number alone, nothing else.

Requested field: normalized growth. Item: O=C(Cc1cccs1)NC1C(=O)N2C(C(=O)[O-])=C(C[n+]3ccccc3)CSC12 (stereo not given)
1.01

Requested field: normalized growth. Item: O=C(O[C@@H]1Cc2c(O)cc(O)cc2O[C@@H]1c1cc(O)c(=O)c2c(O)c(O)cc([C@H]3Oc4cc(O)cc(O)c4C[C@H]3OC(=O)c3cc(O)c(O)c(O)c3)c2c1)c1cc(O)c(O)c(O)c1
1.03

Requested field: normalized growth. Item: CCC/C=C1\OC(=O)C2=C1CCC=C2
0.988

Requested field: normalized growth. Item: CCCCCCCCCCCCCCCCCC(=O)OC(CC(=O)O)C[N+](C)(C)C (stereo not given)
0.587

Requested field: normalized growth. Item: C[N+](C)(C)CC(O)CC(=O)O (stereo not given)
0.998

---

# assay_method_text: chemical genetic growth profiling, strain panel (AID 1159580);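 further: tested at 20 µM; growth read once vehicle control cultures reached saturation at 30 °C; 1 = growth at the plate median or of vehicle wells; lower values mean less growth of the strain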
# settings: S. cerevisiae deletion strains, growth OD, locus YGL240W, strain doc1, stronger effect = lower value
The campaign covered roughly 5,500 compounds. About 2,000 (36%) were called active. Another 18% or so got no clear call; they are omitted. This is one part of the list. Where a SMILES comes first, the peptide text is derived from it.
result_type: normalized growth
Reply: number alone, nothing else.

Requested field: normalized growth. Item: COc1ccc2c(c1)CCC1C2CC[C@@]2(C)C1CC[C@@H]2O (stereo partly specified)
0.855

Requested field: normalized growth. Item: COc1ccc2c(c1)CCC1C2CCC2(C)C1C[C@@H](O)C2O (stereo partly specified)
0.944

Requested field: normalized growth. Item: NC(N)=NC(=O)c1nc(Cl)c(N)nc1N
1.05

Requested field: normalized growth. Item: CC(=O)OC(C)C[N+](C)(C)C (stereo unspecified)
0.985

Requested field: normalized growth. Item: CCCCCCC(C)OC(=O)COc1ccc(Cl)cc1Cl (stereo unspecified)
1

Requested field: normalized growth. Item: NS(=O)(=O)c1cc(C2(O)NC(=O)c3ccccc32)ccc1Cl (stereo unspecified)
0.964

Requested field: normalized growth. Item: C[C@]12CCC3c4ccc(OS(=O)(=O)O)cc4CCC3C1CC[C@H]2O (stereo partly specified)
1.01

Requested field: normalized growth. Item: COC(=O)[C@H](Cc1ccccc1)NC(=O)[C@@H](N)CC(=O)O (H-Asp-Phe-OMe)
1.04

Requested field: normalized growth. Item: C[C@]12CCC3c4ccc(O)cc4CCC3C1C[C@@H](O)[C@@H]2O (stereo partly specified)
1.03

Requested field: normalized growth. Item: C=C(C)[C@H]1COc2cc3oc(=O)ccc3cc2O1
0.756

Requested field: normalized growth. Item: O=c1ccc2cc(OC3OC(CO)C(O)C(O)C3O)c(O)cc2o1 (stereo unspecified)
1.04

---

# assay_method_text: chemical genetic growth profiling, strain panel (AID 1159580);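 further: tested at 20 µM; growth read once vehicle control cultures reached saturation at 30 °C; 1 = growth at the plate median or of vehicle wells; lower values mean less growth of the strain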
# settings: S. cerevisiae deletion strains, growth OD, locus YER110C, stronger effect = lower value
The whole screen tested about 5,500 compounds, of which about 2,000 (36%) were called active. Another 18% or so got no clear call; they are omitted. Some of the results follow.
Could you please report measured normalized growth for the items listed next?
Reply: number alone, nothing else.

Requested field: normalized growth. Item: CC(C)(C)NCC(O)c1cc(O)cc(O)c1 (stereo unspecified)
0.97

Requested field: normalized growth. Item: COc1cc2occc2c2oc(=O)ccc12
0.936

Requested field: normalized growth. Item: NS(=O)(=O)c1cc(C2(O)NC(=O)c3ccccc32)ccc1Cl (stereo unspecified)
1.02

Requested field: normalized growth. Item: COc1ccc(-c2oc3cc(O[C@H]4O[C@H](CO)[C@@H](O)[C@H](O)[C@H]4O)c(OC)c(O)c3c(=O)c2OC)cc1O
0.964

Requested field: normalized growth. Item: O=C(Cc1cccs1)NC1C(=O)N2C(C(=O)[O-])=C(C[n+]3ccccc3)CSC12 (stereo unspecified)
0.992

Requested field: normalized growth. Item: COc1c(C(C)C)oc2cc3oc(=O)ccc3cc12
0.914

Requested field: normalized growth. Item: CC(CC(O)C1OC1(C)C)[C@@H]1CCC2(C)C3=CCC4C(C)(C)C(=O)CCC4(C)C3CC[C@@]12C (stereo partly specified)
1.03

Requested field: normalized growth. Item: CC(C)[N+](C)(CCC(C(N)=O)(c1ccccc1)c1ccccc1)C(C)C
1

Requested field: normalized growth. Item: NC(=O)CN1CCCC1=O
1.02

Requested field: normalized growth. Item: O=c1cc(-c2ccc(O)cc2)oc2cc(O[C@@H]3O[C@H](CO)[C@@H](O)[C@H](O)[C@H]3O)cc(O)c12
0.995

Requested field: normalized growth. Item: CC(C)C1COc2cc3oc(=O)ccc3cc2O1 (stereo unspecified)
0.698

Requested field: normalized growth. Item: CN(C)c1nc(N)c(C(=O)N=C(N)N)nc1Cl
1.02

Requested field: normalized growth. Item: CC1=CC(=O)C2=C(C)CC[C@@H]3[C@H](OC(=O)[C@H]3C)[C@@H]12
0.979

Requested field: normalized growth. Item: CC(C)N(CCC(C(N)=O)(c1ccccc1)c1ccccn1)C(C)C (stereo unspecified)
0.977

Requested field: normalized growth. Item: CCC(N)C(O)c1ccc(O)c(O)c1 (stereo unspecified)
0.985

Requested field: normalized growth. Item: CCCCCc1c2c(cc(O)c1C(=O)O)OC(=O)c1c(cc(OC)cc1C(=O)CCCC)O2
0.973

Requested field: normalized growth. Item: CCCCOc1cc(C(=O)NCCN(CC)CC)c2ccccc2n1
1

Requested field: normalized growth. Item: CC1CC[C@@]2(OC1)O[C@H]1CC3C4CC[C@@H]5CC(=O)CC[C@]5(C)C4CC[C@]3(C)[C@H]1[C@@H]2C (stereo partly specified)
0.994

Requested field: normalized growth. Item: CC(=O)[C@@]1(O)CCC2C3C[C@H](C)C4=CC(=O)C=CC4(C)[C@@]3(F)[C@@H](O)C[C@@]21C (stereo partly specified)
1.02

Requested field: normalized growth. Item: COc1ccccc1/C=C\C(=O)O
1.03

Requested field: normalized growth. Item: CC1CCC2(OC1)OC1CC3C4CC[C@H]5C[C@@H](O)CC[C@]5(C)C4CC(=O)[C@]3(C)C1C2C (stereo partly specified)
0.978

Requested field: normalized growth. Item: CC(=O)OC1CN2CCC1CC2 (stereo unspecified)
0.959

Requested field: normalized growth. Item: CC/C(=C(/CC)c1ccc(O)cc1)c1ccc(O)cc1
1.03

Requested field: normalized growth. Item: CC1CC[C@]2(NC1)O[C@H]1CC3C4CC[C@H]5C[C@@H](O)CC[C@]5(C)C4CC[C@]3(C)[C@H]1[C@@H]2C (stereo partly specified)
0.135

Requested field: normalized growth. Item: COc1ccc(Cl)cc1C(=O)NCCc1ccc(S(=O)(=O)NC(=O)NC2CCCCC2)cc1
0.999

Requested field: normalized growth. Item: CC(C)(O)[C@@H]1Cc2cc3ccc(=O)oc3cc2O1
1.01

Requested field: normalized growth. Item: CC1O[C@@H](Oc2c(-c3ccc(O)c(O)c3)oc3cc(O)cc(O)c3c2=O)[C@H](O)[C@H](O)[C@H]1O (stereo partly specified)
0.993

Requested field: normalized growth. Item: COc1c2ccoc2cc2oc(=O)ccc12
0.863

Requested field: normalized growth. Item: Cc1ccccc1OCC(O)CO (stereo unspecified)
0.99

Requested field: normalized growth. Item: CCc1cccc(CC)c1N(COC)C(=O)CCl
1.01

Requested field: normalized growth. Item: CN1C[C@H](C(=O)N[C@]2(C)O[C@@]3(O)[C@@H]4CCCN4C(=O)[C@H](Cc4ccccc4)N3C2=O)C[C@@H]2c3cccc4[nH]cc(c34)C[C@H]21
0.977

Requested field: normalized growth. Item: CC(C1OC(C)(C)C(O)C1O)[C@@H]1CC[C@]2(C)C3=CCC4C(C)(C)C(=O)CC[C@]4(C)C3CC[C@@]12C (stereo partly specified)
1.03

Requested field: normalized growth. Item: CCC(c1ccc(O)cc1)C(CC)c1ccc(O)cc1 (stereo unspecified)
1.01

Requested field: normalized growth. Item: CCCC(C)(COC(N)=O)COC(=O)NC(C)C (stereo unspecified)
0.964

Requested field: normalized growth. Item: CO[C@@]1(NC(=O)C(C(=O)O)c2ccc(O)cc2)C(=O)N2C(C(=O)O)=C(CSc3nnnn3C)CO[C@@H]21 (stereo partly specified)
1.02

Requested field: normalized growth. Item: COc1ccc(-c2cc(=O)c3c(O)cc(O[C@@H]4O[C@H](CO[C@H]5O[C@H](C)[C@@H](O)[C@H](O)[C@@H]5O)[C@@H](O)[C@H](O)[C@H]4O)cc3o2)cc1O
0.979

Requested field: normalized growth. Item: NC(N)=NC(=O)c1nc(Cl)c(N2CCCCCC2)nc1N
1

Requested field: normalized growth. Item: O=c1c(O)c(-c2ccc(O)cc2O)oc2cc(O)cc(O)c12
1.02

Requested field: normalized growth. Item: CNC(C)C(O)c1ccccc1 (stereo unspecified)
1.04

Requested field: normalized growth. Item: COc1cc(OC)c2ccc(=O)oc2c1
0.983

Requested field: normalized growth. Item: C[C@@H]1CC[C@@]2(OC1)OC1CC3C4CC=C5C[C@@H](O)CC[C@]5(C)C4CC[C@]3(C)C1[C@@H]2C (stereo partly specified)
0.969
